Data origin, for the record: the supplement of paper PMC5908809

System: DERL-7 (IL-2 2.5 ng/mL)
assay.remarks: percent inhibition of viability; higher = more inhibition;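 note: normalised to DMSO-only wells as negative and benzethonium chloride as positive control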
setup.conditions: 72 h; 10000 nM
Please assign n whenever percent inhibition of viability is at or above 60%, and y whenever it is below.

Solved entries (count: 4):
CCCOc1ccn2c(C(C)=O)cc(-c3ccccc3S(C)(=O)=O)c2c1 [GSK2801] (max concentration tested 10000 nM)	y
O=C(O)c1ccc(O)c2ncccc12 [IOX-1] (max concentration tested 100000 nM)	y
CCc1c2c(nc3ccc(OC(=O)N4CCC(N5CCCCC5)CC4)cc13)-c1cc3c(c(=O)n1C2)COC(=O)[C@]3(O)CC [Irinotecan] (max concentration tested 10000 nM)	n
CN1CC[C@H](c2c(O)cc(O)c3c(=O)cc(-c4ccccc4Cl)oc23)[C@H](O)C1 [Alvocidib] (max concentration tested 10000 nM)	n

Moving on to the next molecule.
Determine whether this molecule shows percent inhibition of viability lower than 60% (ties excluded): CN1CCN(c2cc(C(=O)Nc3ccc4c(c3)-c3c(c(C(N)=O)nn3-c3ccc(F)cc3)CC4)c(Cl)cn2)CC1 [PHA 408] (max concentration tested 10000 nM)
n

###

Tested on: normal primary NK cells, pool 1 (3 donors), resting (IL-2 0 ng/mL)
assay.remarks: percent inhibition of viability; higher = more inhibition
setup.conditions: 72 h; 1 nM
Parameter percent inhibition of viability: see the listing below.
Record the value in %, omitting the unit from your answer.

Some entries whose results are on file:
O=C(/C=C\n1cnc(-c2cc(C(F)(F)F)cc(C(F)(F)F)c2)n1)NNc1cnccn1 [Selinexor] (max concentration tested 10000 nM)	-3.27
O=c1[nH]c(=O)n([C@H]2C[C@H](O)[C@@H](CO)O2)cc1F [Floxuridine] (max concentration tested 10000 nM)	-14.4
CC(C)Oc1ccc(C(=O)N[C@H](CNC(=O)CN(C)C)Cc2ccc(-c3cn4cccc([C@H](C)O)c4n3)cc2)cc1Cl (max concentration tested 10000 nM)	-16.4
COc1cc2c(Nc3ccc(Cl)c(Cl)c3F)ncnc2cc1OC[C@@H]1C[C@@H]2CN(C)C[C@@H]2C1 [XL-647] (max concentration tested 1000 nM)	21.2
Cn1cc(C2=Nc3cc(NC(=O)C(N)C4CCCCC4)cc4c3C2=CNNC4=O)cn1 (stereo unspecified) (max concentration tested 10000 nM)	1.23

Would you mind telling me what percent inhibition of viability value was observed for COc1ncc(-c2ccc3nccc(-c4ccnnc4)c3c2)cc1NS(=O)(=O)c1ccc(F)cc1F [Omipalisib] (max concentration tested 1000 nM) ?
9.83

###

Property: percent inhibition of viability; scope: individual compounds
Test system: normal primary NK cells, pool 1 (3 donors) (IL-2 2.5 ng/mL)
assay.remarks: percent inhibition of viability; higher = more inhibition
setup.conditions: 72 h; 10 nM
Provide only the numeric value, understood in %.

Check out these entries, answers already filled in.
O=C(O)c1ccc(O)c2ncccc12 [IOX-1] (max concentration tested 100000 nM)	-3.62
CCCOc1ccn2c(C(C)=O)cc(-c3ccccc3S(C)(=O)=O)c2c1 [GSK2801] (max concentration tested 10000 nM)	-8.31

What measured percent inhibition of viability is associated with Cc1cc(C(C)Nc2ccccc2)c2nc(N3CCOCC3)cc(=O)n2c1 (configuration not stated) [TGX-221] (max concentration tested 10000 nM) on normal primary NK cells, pool 1 (3 donors) (IL-2 2.5 ng/mL)?
-0.76

Try the compound C[C@H]1C[C@@H]2[C@H]([C@@H](O)C[C@@]3(C)[C@H]2CC[C@]3(O)C(=O)CO)[C@@]2(C)C=CC(=O)C=C12 [Methylprednisolone] (max concentration tested 10000 nM)
24

Same again, this time with O=C(c1ccc(F)c(F)c1Nc1ccc(I)cc1F)N1CC(O)([C@@H]2CCCCN2)C1 [Cobimetinib] (max concentration tested 1000 nM)
17.3
